Documented Ki across a set of compounds
- experimental-system: Rat SERT (Rattus norvegicus)
- Construct: A rat brain without cerebellum (Zivic Laboratories, Inc.—Pittsburgh, Pa.) was homogenized; tissue Zivic Laboratories, Inc; host or cells: rat brain without cerebellum, membranes
- Sequence (P31652 whole entry): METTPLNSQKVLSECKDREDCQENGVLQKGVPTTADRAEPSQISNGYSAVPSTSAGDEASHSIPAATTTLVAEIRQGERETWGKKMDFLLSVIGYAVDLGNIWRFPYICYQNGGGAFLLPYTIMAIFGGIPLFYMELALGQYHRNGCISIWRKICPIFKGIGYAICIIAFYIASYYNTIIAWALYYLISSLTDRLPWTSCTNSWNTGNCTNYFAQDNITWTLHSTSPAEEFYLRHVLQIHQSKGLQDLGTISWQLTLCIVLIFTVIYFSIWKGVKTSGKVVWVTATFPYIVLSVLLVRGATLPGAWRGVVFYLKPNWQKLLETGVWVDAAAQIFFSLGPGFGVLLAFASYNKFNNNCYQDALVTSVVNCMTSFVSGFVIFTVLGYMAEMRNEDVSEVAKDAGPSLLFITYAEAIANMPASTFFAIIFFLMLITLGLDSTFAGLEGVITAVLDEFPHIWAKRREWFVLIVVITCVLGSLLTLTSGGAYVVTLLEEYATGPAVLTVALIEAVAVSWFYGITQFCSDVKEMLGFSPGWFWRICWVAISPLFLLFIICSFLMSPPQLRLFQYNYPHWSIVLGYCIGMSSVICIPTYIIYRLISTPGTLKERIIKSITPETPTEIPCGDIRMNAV
- test-name: Rat brain SERT binding ([3H]-citalopram displacement)
- condition-notes: rat brain membranes without cerebellum, 0.6 nM [3H]-citalopram, 60 min at 25° C.; read-out: Rat SERT Ki

compound | Ki [nM]
COc1ccc(C2CN(C)Cc3cc(OCCCN4CCN(C(=O)C5CC5)CC4)ccc32)cc1 (centres unmarked) [Example 7] | 14
COc1ccc(C2CN(C)Cc3cc(OCCCN4CCCC(C(F)(F)F)C4)ccc32)cc1 (centres unmarked) [Example 25] | 10
CN1Cc2cc(OCCCN3CCC(F)CC3)ccc2C(c2ccc(OC(F)(F)F)cc2)C1 (centres unmarked) [Example 49] | 14
COc1ccc(C2CN(C)Cc3cc(OC4CCN(C5CCOCC5)CC4)ccc32)cc1 (centres unmarked) [Example 121] | 10
COc1ccc(C2CN(C)Cc3cc(OCCCN4CCC(C#N)CC4)ccc32)cc1 (single isomer, unassigned) [Example 37A] | 9

----------
- experimental-system: human SERT (Homo sapiens, UniProt P31645)
- Construct: expressed in transfected cells; host or cells: HEK293 membranes
- Sequence (P31645 whole entry): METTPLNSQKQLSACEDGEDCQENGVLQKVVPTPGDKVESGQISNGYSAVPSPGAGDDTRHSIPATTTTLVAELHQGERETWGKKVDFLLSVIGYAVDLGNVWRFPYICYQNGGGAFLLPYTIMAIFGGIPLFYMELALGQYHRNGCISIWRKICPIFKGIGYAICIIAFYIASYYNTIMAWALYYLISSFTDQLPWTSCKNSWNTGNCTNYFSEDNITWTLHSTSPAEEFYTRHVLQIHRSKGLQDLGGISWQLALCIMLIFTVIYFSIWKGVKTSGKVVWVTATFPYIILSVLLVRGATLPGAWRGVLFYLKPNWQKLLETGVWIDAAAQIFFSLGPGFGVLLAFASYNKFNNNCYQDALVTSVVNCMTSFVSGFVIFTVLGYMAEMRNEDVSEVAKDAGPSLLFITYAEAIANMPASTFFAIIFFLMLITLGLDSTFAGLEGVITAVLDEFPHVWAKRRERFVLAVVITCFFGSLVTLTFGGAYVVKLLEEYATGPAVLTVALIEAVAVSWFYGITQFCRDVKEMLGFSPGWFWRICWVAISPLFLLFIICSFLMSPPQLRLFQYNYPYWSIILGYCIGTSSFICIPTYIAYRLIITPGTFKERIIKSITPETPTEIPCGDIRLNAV
- test-name: Human SERT binding (3H-citalopram displacement)
- condition-notes: HEK293 membranes expressing human SERT, rt 1 h
The class of a record is decided solely by its measured Ki; consult class A: < 7 nM; class B: ≥ 7 nM and < 20 nM; class C: ≥ 20 nM

compound | label-value
CN1Cc2cc(OCCCN3CCC(F)CC3)ccc2C(c2ccc(S(C)(=O)=O)cc2)C1 (centres unmarked) | class C
CSc1ccc(C2CN(C)Cc3cc(OCCCN4CCC(F)CC4)ccc32)cc1 (single isomer, unassigned) [Example 154] | class A
COc1ccc(C2CN(C)Cc3cc(OCCCN4CCC(F)CC4)ccc32)cc1 (single isomer, unassigned) [Example 1A] | class B
CN1Cc2cc(OCCCN3CCOCC3)ccc2C(c2ccc(Cl)c(Cl)c2)C1 (centres unmarked) | class C
COc1ccc(C2CN(C)Cc3cc(OCCCN4CCN(C(=O)c5cn(C)cn5)CC4)ccc32)cc1 (centres unmarked) | class B
COc1ccc(C2CN(C)Cc3cc(CCCCN4CCSCC4)ccc32)cc1 (centres unmarked) | class B
COc1ccc(C2CN(C)Cc3cc(CCCCN4CCC(F)(F)CC4)ccc32)cc1 (centres unmarked) | class B
CN1Cc2cc(OCCCN3CCC(F)CC3)ccc2C(c2cccc(F)c2)C1 (centres unmarked) | class C
COc1ccc(C2CN(C)Cc3cc(OCCCN4CC[C@@H](N(C)C)C4)ccc32)cc1 (stereo in doubt) | class A
CSc1ccc(C2CN(C)Cc3cc(OC4CCN(C)CC4)ccc32)cc1 (centres unmarked) | class A
COc1ccc(C2CN(C)Cc3cc(OCCCN4CCCC(F)(F)C4)ccc32)cc1 (single isomer, unassigned) [Example 29A] | class B
COc1ccc(C2CN(C(C)(C)C)Cc3cc(OCCCN4CCCCC4)ccc32)cc1 (centres unmarked) | class C
COc1ccc(C2CN(C)Cc3cc(OCC4CN(C5CC5)CCO4)ccc32)cc1 (mixture of isomers) | class C
COc1ccc(C2CN(C)Cc3cc(OCCCN4CCCCC4CCO)ccc32)cc1 (centres unmarked) | class A
COc1ccc(C2CN(C)Cc3cc(OCCCN4CCC(CCO)CC4)ccc32)cc1 (centres unmarked) | class A

These measurements were taken from patent US20060194837A1.
